So I've got a bunch of binders here, and I need their % binding (parent = 100) values.
Biological target: T1, human C5 (human, UniProt P01031 19-673; P01031 678-1676, Beta and alpha chains are disulfide-linked and the protein is glycosylated.)
T1 construct: Either in-house recombinant C5 or plasma derived C5 (CALBIOCHEM) was used; also called recombinant human C5; plasma derived human C5
Assay: Biacore, captured antibody, pH 7.4, 37 C;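 note: biacore binding response of anti-C5 antibody light chain variants captured on chip with human C5 injected, ACES running buffer containing 1.2 mM CaCl₂, parent light chain antibody set to 100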
Numbers only, in %.

Examples with answers:
BINDER	OBSERVED_PROPERTY	RESULT_VALUE
CFP0015 15L 32E (antibody, V domains shown) VH: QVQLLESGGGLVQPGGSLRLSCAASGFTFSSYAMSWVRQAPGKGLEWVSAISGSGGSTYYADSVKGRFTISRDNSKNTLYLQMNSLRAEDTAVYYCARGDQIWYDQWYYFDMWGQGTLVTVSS VL: DIQMTQSPSSLSASVGDRVTITCRASQSIEDELAWYQQKPGKAPKLLIYEASNLQSGVPSRFSGSGSGTDFTLTISSLQPEDFATYYCQQYDSSPLTFGQGTKVEIK	% binding (parent = 100)	87.3
CFP0021 21L 96P (antibody, V domains shown) VH: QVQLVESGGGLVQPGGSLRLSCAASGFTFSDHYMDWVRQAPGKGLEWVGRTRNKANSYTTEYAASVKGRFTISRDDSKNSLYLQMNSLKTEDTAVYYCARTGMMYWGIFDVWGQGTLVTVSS VL: DIQMTQSPSSLSASVGDRVTITCRASQSIEDDLAWYQQKPGKAPKLLIYHASTLQSGVPSRFSGSGSGTDFTLTISSLQPEDFATYYCQQHDSYPPTFGQGTKVEIK	% binding (parent = 100)	4.3

State the recorded % binding (parent = 100) for every item in the following list.
1. CFP0017 (antibody, V domains shown, IgG format) VH: QVQLVQSGAEVKKPGSSVKVSCKASGGTFSSYAISWVRQAPGQGLEWMGGIIPIFGTANYAQKFQGRVTITADESTSTAYMELSSLRSEDTAVYYCARGGWWGGALDYWGQGTLVTVSS VL: DIQMTQSPSSLSASVGDRVTITCRASQSIEDDLAWYQQKPGKAPKLLIYHASSLQSGVPSRFSGSGSGTDFTLTISSLQPEDFATYYCQQSDSYPLTFGQGTKVEIK
2. CFP0018 18L 30A (antibody, V domains shown) VH: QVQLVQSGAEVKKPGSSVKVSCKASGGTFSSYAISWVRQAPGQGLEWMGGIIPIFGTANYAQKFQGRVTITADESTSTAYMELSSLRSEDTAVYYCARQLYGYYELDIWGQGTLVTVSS VL: DIQMTQSPSSLSASVGDRVTITCRASQSIADDLAWYQQKPGKAPKLLIYEASSLQSGVPSRFSGSGSGTDFTLTISSLQPEDFATYYCQQYNSYPLTFGQGTKVEIK
3. CFP0017 17L 91R (antibody, V domains shown) VH: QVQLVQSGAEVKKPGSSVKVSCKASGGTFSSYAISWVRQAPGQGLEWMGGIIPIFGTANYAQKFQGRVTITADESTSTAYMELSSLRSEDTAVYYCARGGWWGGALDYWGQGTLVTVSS VL: DIQMTQSPSSLSASVGDRVTITCRASQSIEDDLAWYQQKPGKAPKLLIYHASSLQSGVPSRFSGSGSGTDFTLTISSLQPEDFATYYCQQRDSYPLTFGQGTKVEIK

RESULT:
1: 100; 2: 21.2; 3: -4
